B1: TPR 5TU (parent)
chain: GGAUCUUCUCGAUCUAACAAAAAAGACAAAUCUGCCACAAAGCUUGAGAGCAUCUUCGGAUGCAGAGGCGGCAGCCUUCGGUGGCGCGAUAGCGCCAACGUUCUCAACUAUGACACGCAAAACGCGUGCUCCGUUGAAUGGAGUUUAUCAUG

variants of: B1; experiment: polymerase ribozyme fitness, log enrichment relative to wild type (log ratio); higher = more active; in vitro selection for triplet polymerase activity
Variants at the floor of the assay were thinned out.
REPORTED_METRIC: polymerase ribozyme fitness (log ratio)
Respond using a number only.

Please indicate polymerase ribozyme fitness (log ratio) recorded for G58C G86U U104G
-1.93

Please report polymerase ribozyme fitness (log ratio) for the following variant: A22U U31C G81C A89C
1.01

Give recorded polymerase ribozyme fitness (log ratio). A16G U55A G83A G117U
-1.7

Identify measured polymerase ribozyme fitness (log ratio) corresponding to G59U G124C U134G U146A
-3.17

Look up and state reported polymerase ribozyme fitness (log ratio) for A17G G143U
-2.24

Supply polymerase ribozyme fitness (log ratio) value. Item: A52C C85U A147G
-3.76

Check the records and state polymerase ribozyme fitness (log ratio) for G86U C118U
-1.69

Kindly indicate its recorded polymerase ribozyme fitness (log ratio). Item: U55A C105G G141U
-2.82

Answer with the recorded polymerase ribozyme fitness (log ratio) of C93U U144C only.
-1.07

// Input: G84A A115C . Output its polymerase ribozyme fitness (log ratio) only.
-0.594

Indicate the recorded polymerase ribozyme fitness (log ratio) value for this variant: G11A A37C U56G G83A U145G
-3.73

Give the reported value of polymerase ribozyme fitness (log ratio) for this record: C10U U55A G84U
-4.1
